Please find below IC50 measurements for UniProtKB P51449, combined from several publications.

compound	assay.target	IC50
CC1(C)[C@H]2CC[C@]1(c1cc(N)ccn1)c1nnc(-c3c(F)cccc3F)cc12	UniProtKB P51449	1510 nM
CC1(O)CCN(C(=O)[C@]23CC[C@H](c4cc(-c5c(F)cccc5F)nnc42)C3(C)C)C1 (stereo partly shown)	UniProtKB P51449	1100 nM
CC1(C)[C@H]2CC[C@]1(Cc1noc(CO)n1)c1nnc(-c3c(F)cccc3F)cc12	UniProtKB P51449	323 nM
CC(C)CN(Cc1ccc(-c2cccc(C(=O)N(C)C)c2)s1)S(=O)(=O)Cc1ccccc1	UniProtKB P51449	2400 nM

---

Compiled record: IC50 values for UniProt:P51449 across several sources.

compound	censoring.operator	IC50 / nM
CC(=O)N1CCN(c2ccc(S(=O)(=O)N(Cc3ccc(Cl)cc3)CC(C)C)cc2)CC1	=	87
CNC(=O)N1CCO[C@@H]([C@@]23CC[C@@H](c4cc(-c5c(F)cccc5F)nnc42)C3(C)C)C1	=	24
CC1(C)[C@@H]2CC[C@@]1(C(=O)N1CC3(CCC3)C1)c1nnc(-c3c(F)cccc3F)cc12	=	217
C[C@H]1CC[C@H](c2ccccc2)S(=O)(=O)N1Cc1cc(F)c(C2(CO)CCC(n3cnnc3)CC2)cc1F (some centres unmarked)	=	87.9
C[C@H]1CC[C@H](c2ccccc2)S(=O)(=O)N1Cc1cc(F)c([C@]2(C(N)=O)C[C@](C)(O)C2)cc1F	=	4.7
CC1(C)[C@H]2CC[C@]1(c1cc(N)ncc1Cl)c1nnc(-c3c(F)cccc3F)cc12	=	24.4
Cc1cc(COc2ccc(CN3[C@@H](C)CCC(c4ccccc4)S3(=O)=O)cc2)n(C)n1 (some centres unmarked)	=	387
CC(C)(O)COc1cncc([C@@]23CC[C@@H](c4cc(-c5c(F)cccc5F)nnc42)C3(C)C)n1	=	36.4
CC1(C)[C@H]2CC[C@]1(c1cncc(-c3ocnc3CO)n1)c1nnc(-c3c(F)cccc3F)cc12	=	17.2
CC(C)(O)c1nc(-c2cncc([C@@]34CC[C@@H](c5cc(-c6c(F)cccc6F)nnc53)C4(C)C)n2)no1	=	10.1
C[C@H]1COC(=O)N1C[C@@]12CC[C@@H](c3cc(-c4c(F)cccc4F)nnc31)C2(C)C	=	1110
CC1(C)[C@H]2CC[C@]1(c1cc(C(=O)O)ccn1)c1nnc(-c3c(F)cccc3F)cc12	=	475
Cc1cc(C(=O)NC(C)c2cc(F)c(CN3[C@@H](C)CC[C@H](c4ccccc4)S3(=O)=O)cc2F)[nH]n1 (stereo in doubt)	=	107
CC(=O)NC1(c2ccc(CN3[C@@H](C)CC[C@H](c4ccccc4)S3(=O)=O)c(F)c2)CCOCC1	=	93.2
CC1(C)[C@H]2CC[C@]1(Oc1nccnc1C(=O)NCCO)c1nnc(-c3c(F)cccc3F)cc12	=	340
CC1(C)[C@H]2CC[C@]1(c1cncc(=O)[nH]1)c1nnc(-c3c(F)cccc3F)cc12	=	30.5
CCOC(=O)[C@H](C)NC1(c2ccc(CN3[C@@H](C)CC[C@H](c4ccccc4)S3(=O)=O)c(F)c2)CCOCC1	=	40.9
CC1(C)[C@H]2CC[C@]1(c1ccnc(S(=O)(=O)NCCO)n1)c1nnc(-c3c(F)cccc3F)cc12	=	13.6
CC(C)(O)c1cc(-c2cncc([C@@]34CC[C@@H](c5cc(-c6c(F)cccc6F)nnc53)C4(C)C)n2)on1	=	3
CC1(C)[C@@H]2CC[C@@]1(C(=O)N1CCC(CCO)C1)c1nnc(-c3c(F)cccc3F)cc12 (some centres unmarked)	=	314
CC1(C)[C@H]2CC[C@]1(c1ccnc(NCc3n[nH]c(=O)[nH]3)n1)c1nnc(-c3c(F)cccc3F)cc12	=	65.8
CC(C)(O)c1cc(-c2cncc([C@@]34CC[C@@H](c5cc(-c6c(F)cccc6F)nnc53)C4(C)C)n2)no1	=	8.7
CN(Cc1ccccc1OC(F)(F)F)c1ncnc(NCc2ccc(CC(N)=O)cc2)c1F	<	500
C[C@H]1CC[C@H](c2ccccc2)S(=O)(=O)N1Cc1ccc(C2(C(=O)NCC(N)=O)CCOCC2)cc1F	=	268
C[C@H]1CC[C@H](c2ccccc2)S(=O)(=O)N1Cc1ccc([C@]2(C#N)CC[C@@H](n3cnnc3)CC2)cc1F	=	110
C[C@H]1CCC(c2ccccc2)S(=O)(=O)N1Cc1ccc(-c2ccc(C(N)=O)cc2)cc1F (some centres unmarked)	=	37
CC1(C)[C@H]2CC[C@]1(c1cncc(C(=O)N[C@H]3C[C@](C)(O)C3)n1)c1nnc(-c3c(F)cccc3F)cc12	=	14
CC1(C)[C@H]2CC[C@]1(c1ccnc(-c3cnc(=O)[nH]c3)n1)c1nnc(-c3c(F)cccc3F)cc12	=	7.8
COc1cc(CNc2ncnc(N(Cc3ccc(C(F)(F)F)cc3)C3CC3)c2F)ccn1	<	500

---

From various publications: IC50 for RORc (Homo sapiens).
experimental.endpoint: IC50 (nM)

molecule	assay.target	test.value
COC(=O)N1CCO[C@@H]([C@@]23CC[C@@H](c4cc(-c5c(F)cccc5F)nnc42)C3(C)C)C1	RORc (Homo sapiens)	36.8
Cc1cc(-c2ccnc([C@@]34CC[C@@H](c5cc(-c6c(F)cccc6F)nnc53)C4(C)C)n2)on1	RORc (Homo sapiens)	11
CC1(C)[C@H]2CC[C@]1([C@H]1CCCN(C(=O)c3cccnn3)C1)c1nnc(-c3c(F)cccc3F)cc12	RORc (Homo sapiens)	7.1
C[C@H]1CC[C@H](c2ccccc2)S(=O)(=O)N1Cc1cc(F)c(C2(OCC(O)CO)CCOCC2)cc1F (stereo in doubt)	RORc (Homo sapiens)	11.6

---

What follows is literature data on log10 IC50 for UniProtKB P51449.
experimental.endpoint: log10 IC50 (log10 of the value in nM)

smiles.text	test.value
C[C@H]1CC[C@H](c2ccccc2)S(=O)(=O)N1Cc1cc(F)c(C2(OCC(=O)N(C)CCO)CCOCC2)cc1F	1.67
COC(=O)c1cnc([C@@]23CC[C@@H](c4cc(-c5c(F)cccc5F)nnc42)C3(C)C)cn1	2.59
CNC(=O)c1cncc([C@@]23CC[C@@H](c4cc(-c5c(F)cccc5F)nnc42)C3(C)C)n1	1.42
CC[C@](C)(O)c1coc(-c2cncc([C@@]34CC[C@@H](c5cc(-c6c(F)cccc6F)nnc53)C4(C)C)n2)n1	1.14
CC1(C)[C@H]2CC[C@]1(c1ccnc(NC(CO)CO)n1)c1nnc(-c3c(F)cccc3F)cc12	1.59
CC(C)CN([C@H](C)c1ccc(-c2ccc(C(N)=O)cc2)cc1)S(=O)(=O)Cc1ccccc1	2.11
CC1(C)[C@H]2CC[C@]1(c1ccnc(-c3ccc(CO)nc3)n1)c1nnc(-c3c(F)cccc3F)cc12	0.74
CC1(C)[C@H]2CC[C@]1(c1cncc(-c3ccc(=O)[nH]c3)n1)c1nnc(-c3c(F)cccc3F)cc12	0.63
Cc1noc(N2CCO[C@H]([C@@]34CC[C@@H](c5cc(-c6c(F)cccc6F)nnc53)C4(C)C)C2)n1	2.44
Cc1cc([C@@]23CC[C@@H](c4cc(-c5c(F)cccc5F)nnc42)C3(C)C)nc(C#N)n1	1.18
CNC(=O)[C@]12CC[C@H](c3cc(-c4c(F)cccc4F)nnc31)C2(C)C	2.14
COC(=O)[C@]1(c2ccc(CN3[C@@H](C)CC[C@H](c4ccccc4)S3(=O)=O)cc2)CC[C@H](n2cnnc2)CC1	2.56

---

Recorded IC50 for compounds tested on UniProt:P51449, drawn from a number of studies.

compound	value.units	IC50
C[C@H]1CC[C@H](c2ccccc2)S(=O)(=O)N1Cc1ccc(C2(CCC#N)COC2)cc1F	nM	77.1
CC1(C)[C@H]2CC[C@]1(c1cocn1)c1nnc(-c3c(F)cccc3F)cc12	nM	39
C[C@@H](O)c1ccn(-c2nccc([C@@]34CC[C@@H](c5cc(-c6c(F)cccc6F)nnc53)C4(C)C)n2)n1	nM	10.6
C[C@H]1CCC(c2ccccc2)S(=O)(=O)N1Cc1ccc(-c2ccc(S(C)(=O)=O)nc2)cc1F (stereo partly shown)	nM	151

---

Collected literature values of pIC50 measured for RORc (Homo sapiens).
pIC50: −log10 of the molar value.
experimental.endpoint: pIC50

smiles.text	censoring.operator	test.value
CC1(C)[C@H]2CC[C@]1(Oc1cncc(C(=O)NCCO)n1)c1nnc(-c3c(F)cccc3F)cc12	=	6.08
CC1(C)[C@H]2CC[C@]1(OCc1ncccn1)c1nnc(-c3c(F)cccc3F)cc12	=	6.29
O=C(C1CC1)N1CCC(CNc2ncnc(N(Cc3ccc(C(F)(F)F)cc3)C3CC3)c2F)CC1	>	6.30
CC1(C)[C@H]2CC[C@]1(c1cncc(-c3nc(CC#N)co3)n1)c1nnc(-c3c(F)cccc3F)cc12	=	8.21
